target_system: alpha2C adrenergic receptors (Homo sapiens, UniProt P18825)
Sequence (P18825 whole entry): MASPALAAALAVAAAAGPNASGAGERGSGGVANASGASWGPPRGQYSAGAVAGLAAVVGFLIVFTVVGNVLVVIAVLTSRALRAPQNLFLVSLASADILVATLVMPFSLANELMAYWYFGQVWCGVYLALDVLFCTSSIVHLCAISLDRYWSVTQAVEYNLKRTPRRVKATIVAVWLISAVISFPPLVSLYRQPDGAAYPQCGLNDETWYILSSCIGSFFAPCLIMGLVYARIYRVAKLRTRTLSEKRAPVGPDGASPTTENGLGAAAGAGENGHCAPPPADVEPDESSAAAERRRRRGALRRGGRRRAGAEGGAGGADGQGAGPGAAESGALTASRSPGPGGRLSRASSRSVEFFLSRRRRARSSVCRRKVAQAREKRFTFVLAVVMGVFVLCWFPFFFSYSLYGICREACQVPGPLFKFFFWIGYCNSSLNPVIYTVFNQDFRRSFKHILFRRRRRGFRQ
assay_explanation: Receptor Selection and Amplification Technology (RSAT) assay, alpha2C
measurement_conditions: NA = not active at concentrations less than 10 micromolar, read-out: Alpha 2C EC50
Excerpt: The imidazole-2-thione compounds of the invention are agonists of alpha2 adrenergic receptors, particularly they tend to be specific or selective agonists of alpha2B and/or to a lesser extent alpha2C adrenergic receptors, in preference over alpha2A adrenergic receptors. […] Al., 1995, Pharmacol. Toxicol. 76, pp. 308-311 (incorporated herein by reference) and is also described below. […]
readout: pEC50
Hey, just a heads up that pEC50 is the negative log base 10 of the concentration in molar.

Some compounds with recorded pEC50:
In [3]: df
Out[3]:
                                   compound  readout  measured_value
0  S=c1[nH]cc(CC2CCC=C2c2ccccc2)[nH]1 (centres unmarked)    pEC50            6.67
1      S=c1[nH]cc(C[C@@H]2CCc3ccccc32)[nH]1    pEC50            6.20
2  Fc1cc(F)cc(C2=CCC[C@H]2Cc2c[nH]c(=S)[nH]2)c1    pEC50            6.10

Then there is this compound:
Checklist item: pEC50 tested on alpha2C adrenergic receptors (Homo sapiens, UniProt P18825), entry Fc1cc(F)cc(C2=CCCC2Cc2c[nH]c(=S)[nH]2)c1 (centres unmarked) , value?
6.62

Taken from patent US7323485B2.
